Measured values drawn from patent US8580815B2 for this set.

target under test: Abl WT (Homo sapiens (Human), UniProt P00519)
Sequence (P00519 whole entry): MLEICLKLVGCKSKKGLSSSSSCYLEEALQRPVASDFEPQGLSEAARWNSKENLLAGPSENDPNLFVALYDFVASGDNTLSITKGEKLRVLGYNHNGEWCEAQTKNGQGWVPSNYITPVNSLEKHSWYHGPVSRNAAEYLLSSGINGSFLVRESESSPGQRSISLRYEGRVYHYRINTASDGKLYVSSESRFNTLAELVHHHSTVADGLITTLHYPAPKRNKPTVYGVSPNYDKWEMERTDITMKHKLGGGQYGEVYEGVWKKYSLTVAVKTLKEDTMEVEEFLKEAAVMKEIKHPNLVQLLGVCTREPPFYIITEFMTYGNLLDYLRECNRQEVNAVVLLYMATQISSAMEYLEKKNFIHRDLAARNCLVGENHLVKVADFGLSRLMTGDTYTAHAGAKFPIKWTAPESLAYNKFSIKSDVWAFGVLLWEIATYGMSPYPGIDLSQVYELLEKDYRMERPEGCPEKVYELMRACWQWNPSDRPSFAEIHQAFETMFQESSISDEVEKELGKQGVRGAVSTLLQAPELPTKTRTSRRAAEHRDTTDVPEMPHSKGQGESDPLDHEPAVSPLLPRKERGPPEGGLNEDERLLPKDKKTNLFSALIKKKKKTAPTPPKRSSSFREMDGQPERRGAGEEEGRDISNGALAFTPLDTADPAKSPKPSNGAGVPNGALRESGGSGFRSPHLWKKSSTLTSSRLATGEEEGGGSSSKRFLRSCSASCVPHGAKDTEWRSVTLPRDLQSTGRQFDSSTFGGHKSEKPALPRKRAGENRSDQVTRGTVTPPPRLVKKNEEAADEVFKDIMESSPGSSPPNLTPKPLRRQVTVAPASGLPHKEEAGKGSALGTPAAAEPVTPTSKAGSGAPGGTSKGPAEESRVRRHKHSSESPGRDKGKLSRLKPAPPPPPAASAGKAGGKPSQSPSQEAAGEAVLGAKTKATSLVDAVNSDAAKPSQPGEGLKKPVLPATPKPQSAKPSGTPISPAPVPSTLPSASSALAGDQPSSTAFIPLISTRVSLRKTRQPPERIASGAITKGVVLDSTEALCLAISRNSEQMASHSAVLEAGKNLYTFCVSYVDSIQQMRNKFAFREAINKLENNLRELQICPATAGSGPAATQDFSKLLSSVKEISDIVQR
test name: Reaction Biology Corp. kinase assay, Abl WT
Assay type: biochemical
assay setup: Table 11; ATP at 10 μM; read-out: IC50 in nM Abl WT
reported endpoint: IC50 (nM)
One number for each entry, in nM.

[in] Fill blank: measured IC50 of the compound COC(=O)c1cc2cc(NC(=O)c3ccccc3Br)cnc2[nH]1 [ND0020] is ____.
[out] 44.6

====

target under test: UniProt:P12931
Sequence (P12931 whole entry, looked up): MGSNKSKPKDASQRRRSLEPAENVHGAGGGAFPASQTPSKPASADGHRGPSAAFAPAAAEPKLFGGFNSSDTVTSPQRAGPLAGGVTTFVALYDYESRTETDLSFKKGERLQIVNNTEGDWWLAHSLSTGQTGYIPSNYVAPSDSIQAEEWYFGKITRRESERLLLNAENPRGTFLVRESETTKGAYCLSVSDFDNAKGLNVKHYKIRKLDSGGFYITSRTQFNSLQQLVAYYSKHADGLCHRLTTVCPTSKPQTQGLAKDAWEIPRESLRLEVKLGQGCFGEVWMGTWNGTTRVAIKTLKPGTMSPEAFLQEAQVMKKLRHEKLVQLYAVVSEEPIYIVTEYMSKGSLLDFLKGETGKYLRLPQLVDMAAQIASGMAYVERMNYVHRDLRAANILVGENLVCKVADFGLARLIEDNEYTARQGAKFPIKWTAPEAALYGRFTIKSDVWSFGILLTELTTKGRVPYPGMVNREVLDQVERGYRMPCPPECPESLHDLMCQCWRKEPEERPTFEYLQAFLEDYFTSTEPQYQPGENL
test name: Reaction Biology Corp. kinase assay, Src
assay setup: read-out: % inhibition of kinase activity, Src (category), 10 μM; compounds tested by Reaction Biology Corp.
For each record, write down the corresponding inhibition at 10 µM.

[[record]]
molecule = "COC(=O)c1cc2cc(Nc3cccc(I)c3)cnc2[nH]1"
reported_endpoint = "inhibition at 10 µM"
reported_value = "10 to 50%"

[[record]]
molecule = "COC(=O)c1cc2cc(NC(=O)c3cccc(S(=O)(=O)NCc4ccco4)c3)cnc2[nH]1"
reported_endpoint = "inhibition at 10 µM"
reported_value = "< 10%"

[[record]]
molecule = "COC(=O)c1cc2cc(NC(=O)c3ccccc3OC(F)(F)F)cnc2[nH]1"
reported_endpoint = "inhibition at 10 µM"
reported_value = "10 to 50%"


For every item in the list below, what is its measured inhibition at 10 µM?
1. COC(=O)c1cc2cc(NC(=O)c3ccccc3OC)cnc2[nH]1
2. COC(=O)c1cc2cc(NC(=O)c3cc(NC(=O)c4ccc(CN5CCC(N(C)C)C5)c(C(F)(F)F)c4)ccc3C)cnc2[nH]1 (stereo not drawn)

[out]
1: 10 to 50%; 2: > 50%

Can you give me inhibition at 10 µM for all of these, one by one?
1. COC(=O)c1cc2cc(Nc3ccc(OC)cc3)cnc2[nH]1
2. COC(=O)c1cc2cc(NC(=O)c3ccccc3C(F)(F)F)cnc2[nH]1
3. COC(=O)c1cc2cc(NCc3ccc(S(N)(=O)=O)cc3)cnc2[nH]1
4. COC(=O)c1cc2cc(NC(=O)c3cc(NC(=O)c4ccc(CN5CCN(C)CC5)cc4)ccc3C)cnc2[nH]1

[out]
10 to 50%
> 50%
10 to 50%
> 50%
